# System: GP2D cells
# measurement-description: Cell proliferation assay (CellTiter-Glo), K-Ras G12D cells
# Assay type: cell-based
# run-parameters: GP2d, read-out: Inhibition of GP2D Cells (IC50)
pIC50: −log10 of the molar value.
Documented pIC50 across a set of compounds

| molecule-smiles | pIC50 |
| --- | --- |
| N#Cc1c(N)sc2c(F)ccc(-c3c(Cl)cc4c(N[C@H]5C[C@H]6CC[C@@H](C5)N6C(=O)n5cncn5)nc(OC[C@@]56CCCN5C[C@H](F)C6)nc4c3F)c12 | 5.00 to 6.00 |
| N#Cc1c(N)sc2c(F)ccc(-c3c(Cl)cc4c(O[C@H]5C[C@H]6CC[C@@H](C5)N6C(=O)n5cncn5)nc(OC[C@@]56CCCN5C[C@H](F)C6)nc4c3F)c12 | 5.00 to 6.00 |
| Nc1nc2c(-c3c(Cl)cc4c(N5CC6CCC(C5)N6C(=O)n5cccn5)nc(OC[C@@]56CCCN5C[C@H](F)C6)nc4c3F)ccc(F)c2s1 | 5.00 to 6.00 |
| N#Cc1nccn1C(=O)N1C2CCC1CN(c1nc(OC[C@@]34CCCN3C[C@H](F)C4)nc3c(F)c(-c4ccc(F)c5sc(N)nc45)c(Cl)cc13)C2 | ≥ 6.00 |
| Nc1nc2c(-c3c(Cl)cc4c(N[C@@H]5C[C@H]6CC[C@@H](C5)N6C(=O)n5cncn5)nc(OC[C@@]56CCCN5C[C@H](F)C6)nc4c3F)ccc(F)c2s1 | 5.00 to 6.00 |

###

# Test system: GP2D cells
# measurement-description: Cell proliferation assay (CellTiter-Glo), K-Ras G12D cells
# Format: cell-based
# run-parameters: GP2d, read-out: Inhibition of GP2D Cells (IC50)

| molecule-smiles | target-or-system | IC50 |
| --- | --- | --- |
| Nc1nc2c(-c3c(Cl)cc4c(N5CC6CCC(C5)N6C(=O)n5ccnn5)nc(OC[C@@]56CCCN5C[C@H](F)C6)nc4c3F)ccc(F)c2s1 | GP2D cells | ≤ 1 µM |
| Nc1nc2c(-c3c(Cl)cc4c(N5CC6CCC(C5)N6C(=O)n5cc(F)cn5)nc(OC[C@@]56CCCN5C[C@H](F)C6)nc4c3F)ccc(F)c2s1 | GP2D cells | 1 to 10 µM |
| N#Cc1c(N)sc2c(F)ccc(-c3c(Cl)cc4c(O[C@@H]5C[C@H]6CC[C@@H](C5)N6C(=O)n5cncn5)nc(OC[C@@]56CCCN5C[C@H](F)C6)nc4c3F)c12 | GP2D cells | 1 to 10 µM |
| C#Cc1c(F)ccc2cccc(-c3ccc4c(N5CC6CCC(C5)N6C(=O)n5cncn5)nc(OC[C@@]56CCCN5C[C@H](F)C6)nc4c3F)c12 | GP2D cells | 1 to 10 µM |
| Cc1ncn(C(=O)N2C3CCC2CN(c2nc(OC[C@@]45CCCN4C[C@H](F)C5)nc4c(F)c(-c5ccc(F)c6sc(N)c(C#N)c56)c(Cl)cc24)C3)n1 | GP2D cells | ≤ 1 µM |
| N#Cc1cccn1C(=O)N1C2CCC1CN(c1nc(OC[C@@]34CCCN3C[C@H](F)C4)nc3c(F)c(-c4ccc(F)c5sc(N)nc45)c(Cl)cc13)C2 | GP2D cells | ≤ 1 µM |
